- System: LOC_OS05G07850-cb002;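 further: purified Escherichia coli-expressed rice kinase domain construct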
- method-notes: thermal shift delta Tm vs DMSO control; higher = stronger stabilization (binding)
- cond: 12.5 µM; protein concentration 2 µM
measurement-name: thermal shift delta Tm (°C)
Give the value in °C but do not write °C after it.

Cc1ccc(Nc2cc(N[C@@H]3CCCC[C@@H]3N)nnc2C(N)=O)nc1C 6.83

thermal shift delta Tm of COc1cc2c(N3CCN(C(=O)Nc4ccc(OC(C)C)cc4)CC3)ncnc2cc1OCCCN1CCCCC1 , assay on LOC_OS05G07850-cb002, is 1.44

The compound CCOc1cn(-c2ccc(F)cc2C)nc1C(=O)Nc1ccc(Oc2ccnc3cc(OC)c(OC)cc23)c(F)c1 , when measured on LOC_OS05G07850-cb002, yielded thermal shift delta Tm of 11.1

I looked up CNC(=O)c1ccc(Nc2ncc(C(F)(F)F)c(NCc3nccnc3N(C)S(C)(=O)=O)n2)cc1 and its thermal shift delta Tm for LOC_OS05G07850-cb002 was 10.8
